Measured values drawn from paper PMC11062922 for this set.

tested on: NLK; parameters: species or system human, MV4-11 + K-562 + COLO205 + SK-N-BE2 + OVCAR-8; settings: read-out: apparent Kd; compound concentrations:100 nM and 1000 nM (sheet 'Samples'); n = 1
Documented potency estimated from few doses across a set of compounds
Endpoint label: potency estimated from few doses (nM)

>  <Smiles record>
Fc1ccc(-c2ncn(C3CCNCC3)c2-c2ccnc(Oc3ccccc3)n2)cc1

>  <Assayed system>
NLK

>  <Endpoint label>
potency estimated from few doses

>  <Unit symbol>
nM

>  <Reported>
1500

$$$$
>  <Smiles record>
CCN(CC)CCOc1ccc(Nc2ncc3cc(-c4c(Cl)cccc4Cl)c(=O)n(C)c3n2)cc1

>  <Assayed system>
NLK

>  <Endpoint label>
potency estimated from few doses

>  <Unit symbol>
nM

>  <Reported>
1310

$$$$
>  <Smiles record>
O=C(Nc1n[nH]c2nc(-c3cccc(O)c3)ccc12)C1CC1

>  <Assayed system>
NLK

>  <Endpoint label>
potency estimated from few doses

>  <Unit symbol>
nM

>  <Reported>
1150

$$$$
>  <Smiles record>
CS(=O)(=O)CCn1c(=O)c(Oc2ccc(F)cc2F)cc2cnc(NC3CCOCC3)nc21

>  <Assayed system>
NLK

>  <Endpoint label>
potency estimated from few doses

>  <Unit symbol>
nM

>  <Reported>
55.9

$$$$
>  <Smiles record>
Cl.Cn1c(=O)c(Oc2ccccc2)cc2cnc(NC3CCOCC3)nc21

>  <Assayed system>
NLK

>  <Endpoint label>
potency estimated from few doses

>  <Unit symbol>
nM

>  <Reported>
148

$$$$
>  <Smiles record>
Cn1c(=O)c(Oc2ccc(F)cc2F)cc2cnc(NC3CCOCC3)nc21

>  <Assayed system>
NLK

>  <Endpoint label>
potency estimated from few doses

>  <Unit symbol>
nM

>  <Reported>
1620

$$$$
>  <Smiles record>
Cl.Cn1c(=O)c(Oc2ccc(F)cc2F)cc2cnc(N[C@H]3CC[C@H](O)CC3)nc21

>  <Assayed system>
NLK

>  <Endpoint label>
potency estimated from few doses

>  <Unit symbol>
nM

>  <Reported>
199

$$$$
>  <Smiles record>
COc1cccc(-c2ccc3c(NC(=O)C4CC4)n[nH]c3n2)c1

>  <Assayed system>
NLK

>  <Endpoint label>
potency estimated from few doses

>  <Unit symbol>
nM

>  <Reported>
1900

$$$$
